target: human Nav1.7 (Homo sapiens (Human), UniProt Q15858); assay: FRET-based membrane potential assay, recombinant human sodium channel Nav1.7; conditions: HEK293 cells stably expressing recombinant human Nav1.7; depolarization with veratridine (EC80) + scorpion venom
Sequence (Q15858 whole entry): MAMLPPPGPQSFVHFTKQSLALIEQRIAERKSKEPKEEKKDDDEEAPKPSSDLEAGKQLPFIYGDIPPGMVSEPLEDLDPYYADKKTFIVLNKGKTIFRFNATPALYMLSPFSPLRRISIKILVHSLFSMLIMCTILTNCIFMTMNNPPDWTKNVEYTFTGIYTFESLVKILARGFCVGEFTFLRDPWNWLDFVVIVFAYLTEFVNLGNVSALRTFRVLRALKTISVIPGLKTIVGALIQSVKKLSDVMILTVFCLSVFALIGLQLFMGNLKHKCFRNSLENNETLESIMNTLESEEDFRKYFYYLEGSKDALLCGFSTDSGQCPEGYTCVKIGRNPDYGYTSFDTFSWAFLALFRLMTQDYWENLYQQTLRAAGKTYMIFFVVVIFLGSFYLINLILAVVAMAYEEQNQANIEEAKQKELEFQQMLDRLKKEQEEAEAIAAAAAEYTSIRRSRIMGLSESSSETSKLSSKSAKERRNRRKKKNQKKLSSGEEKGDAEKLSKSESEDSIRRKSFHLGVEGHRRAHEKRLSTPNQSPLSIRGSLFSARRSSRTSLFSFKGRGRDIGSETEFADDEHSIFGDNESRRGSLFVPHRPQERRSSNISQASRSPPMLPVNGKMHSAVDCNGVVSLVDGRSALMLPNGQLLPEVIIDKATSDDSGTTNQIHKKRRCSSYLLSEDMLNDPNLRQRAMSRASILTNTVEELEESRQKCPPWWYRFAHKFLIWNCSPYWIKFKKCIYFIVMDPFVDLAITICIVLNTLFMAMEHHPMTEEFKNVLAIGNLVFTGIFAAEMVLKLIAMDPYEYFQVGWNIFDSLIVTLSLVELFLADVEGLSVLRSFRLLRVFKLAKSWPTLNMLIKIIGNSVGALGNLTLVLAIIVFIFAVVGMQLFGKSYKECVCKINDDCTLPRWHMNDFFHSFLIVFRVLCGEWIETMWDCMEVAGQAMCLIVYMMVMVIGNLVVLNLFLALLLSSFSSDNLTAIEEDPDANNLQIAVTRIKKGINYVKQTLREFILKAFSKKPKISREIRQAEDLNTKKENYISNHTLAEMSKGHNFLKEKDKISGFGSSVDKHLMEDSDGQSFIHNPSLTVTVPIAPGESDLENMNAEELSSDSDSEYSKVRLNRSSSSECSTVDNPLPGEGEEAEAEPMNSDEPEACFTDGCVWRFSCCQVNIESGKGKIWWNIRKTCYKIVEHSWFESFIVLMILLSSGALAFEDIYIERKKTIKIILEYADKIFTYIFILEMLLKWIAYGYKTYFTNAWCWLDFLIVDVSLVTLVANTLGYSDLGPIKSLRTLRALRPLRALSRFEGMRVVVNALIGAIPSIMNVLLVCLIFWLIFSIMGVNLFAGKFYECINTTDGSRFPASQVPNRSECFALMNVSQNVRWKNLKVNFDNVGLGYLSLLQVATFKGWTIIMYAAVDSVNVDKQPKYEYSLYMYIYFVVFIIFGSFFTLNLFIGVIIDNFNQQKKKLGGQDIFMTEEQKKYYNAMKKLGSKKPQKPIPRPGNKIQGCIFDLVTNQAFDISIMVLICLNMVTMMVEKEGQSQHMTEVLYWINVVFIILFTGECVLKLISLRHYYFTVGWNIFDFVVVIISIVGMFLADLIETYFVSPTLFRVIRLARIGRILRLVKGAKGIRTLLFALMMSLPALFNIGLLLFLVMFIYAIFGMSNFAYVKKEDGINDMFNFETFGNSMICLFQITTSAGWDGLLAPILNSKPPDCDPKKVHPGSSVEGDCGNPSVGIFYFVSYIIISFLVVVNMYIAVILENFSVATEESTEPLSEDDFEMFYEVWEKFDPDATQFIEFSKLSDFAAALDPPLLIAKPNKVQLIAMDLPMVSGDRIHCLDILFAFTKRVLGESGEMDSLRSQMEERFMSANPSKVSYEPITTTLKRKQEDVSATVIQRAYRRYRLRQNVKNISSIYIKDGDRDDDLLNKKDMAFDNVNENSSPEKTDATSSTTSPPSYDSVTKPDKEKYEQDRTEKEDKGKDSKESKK
List of IC50 values.
QUANTITY: IC50

- SMILES_RECORD: "O=C1N(c2cccc3c2cnn3-c2ccccc2F)CCN1c1cnn2cccnc12"
  QUANTITY: "IC50"
  RESULT: "1090 nM"
- SMILES_RECORD: "O=C1N(Cc2nnc(C3CCC3)o2)CCN1c1cccc2c1cnn2-c1ccccc1F"
  QUANTITY: "IC50"
  RESULT: "1530 nM"
- SMILES_RECORD: "O=C1N(CC(=O)N2C[C@@H](F)C[C@@H]2c2cc(F)ccc2F)CCN1c1cccc2c1cnn2-c1ccccc1F"
  QUANTITY: "IC50"
  RESULT: "578 nM"
- SMILES_RECORD: "Cc1nccnc1CN1CCN(c2cccc3c2cnn3-c2ccccc2F)C1=O"
  QUANTITY: "IC50"
  RESULT: "915 nM"
- SMILES_RECORD: "Cc1cccc(-n2ncc3c(N4CCN(CC(=O)N5CC[C@H](F)C5)C4=O)cccc32)c1"
  QUANTITY: "IC50"
  RESULT: "1830 nM"
- SMILES_RECORD: "O=C1C[C@H]2CC[C@@H](C1)N2C(=O)CN1CCN(c2cccc3c2cnn3-c2ccccc2F)C1=O"
  QUANTITY: "IC50"
  RESULT: "5850 nM"
- SMILES_RECORD: "COc1nccnc1CN1CCN(c2cccc3c2cnn3-c2ccccc2F)C1=O"
  QUANTITY: "IC50"
  RESULT: "1040 nM"
- SMILES_RECORD: "CC(C)C[C@@](C)(O)CN1CCN(c2cccc3c2cnn3-c2ccccc2F)C1=O"
  QUANTITY: "IC50"
  RESULT: "893 nM"
